- Tested on: HIV-1
- assayNotes: microbe, parasite or virus in culture
- assayContext: read-out: HIV1 CEM: EC50 for inhibition of HIV-1 in CEM cells; Table 6; mean of two or more repeat experiments
metric: pEC50
Please note pEC50 is a logarithmic value: minus log10 of concentration in mol/L. Answer with that number alone.

Reference set, count: 4
>>> measuredvalue("Cc1cn(C2C=CC(COP(=O)(O)NC(C)C(=O)OCc3ccccc3)O2)c(=O)[nH]c1=O (stereo not shown)")
6.02
>>> measuredvalue("CC[C@H](C)[C@H](NP(=O)(OCC1C=CC(n2cc(C)c(=O)[nH]c2=O)O1)Oc1ccccc1)C(=O)OC (stereo partly shown)")
5.30
>>> measuredvalue("Cc1cn(C2C=CC(COP(=O)(O)Oc3ccccc3)O2)c(=O)[nH]c1=O (stereo not shown)")
6.19
>>> measuredvalue("CCCCCCOC(=O)[C@H](C)NP(=O)(OCC1C=CC(n2cc(C)c(=O)[nH]c2=O)O1)Oc1ccccc1 (stereo partly shown)")
7.22

// next item, pEC50 requested
stdin: Write down the reported pEC50 (system: HIV-1) of Cc1cn(C2C=CC(COP(=O)(NC(Cc3ccccc3)C(=O)OCc3ccccc3)Oc3ccccc3)O2)c(=O)[nH]c1=O (stereo not shown) [Compound 877]
stdout: 6.22

###

- Tested on: III-B strain of HIV-1
- assayNotes: microbe, parasite or virus in culture
- Format: cell-based
- assayContext: HIV1 in C8166 cells; Table 3; read-out: Activity EC50
- Protocol: C8166 cells. Cells were grown in RPMI 1640 with 10% calf serum. […] Culture fluid was collected at 5–7 days and gp120 antigen production measured by ELISA (Mahmood and Hay, J. Immunol. Meth., 151, 9–13, 1992). […] Cell viability of infected and uninfected cells were assessed by the MTT-Formazen method (Pauwels et al. J. Virol. Meth. 20, 309–321, 1988). […]
pEC50: −log10 of the molar value.
Note to self: values exactly at 8 are 1.0. So pEC50 at or above 8 is 1.0, below is 0.0.

>>> labelclass("COC(=O)C(C)NP(=O)(OCC1C=CC(n2cc(C)c(=O)[nH]c2=O)O1)Oc1cccc(C(F)(F)F)c1 (stereo not shown)")
1.0
>>> labelclass("CCc1ccc(OP(=O)(N[C@@H](C)C(=O)OC)OCC2C=CC(n3cc(C)c(=O)[nH]c3=O)O2)cc1 (stereo partly shown)")
1.0
>>> labelclass("Cc1cn([C@H]2C=C[C@@H](COP(=O)(NC(C)C(=O)OC(C)(C)C)Oc3ccccc3)O2)c(=O)[nH]c1=O (stereo partly shown)")
0.0
>>> labelclass("COC(=O)C(C)NP(=O)(OC[C@@H]1C=C[C@H](n2cc(C)c(=O)[nH]c2=O)O1)Oc1c(F)c(F)c(F)c(F)c1F (stereo partly shown)")
0.0
>>> labelclass("Cc1cn(C2C=CC(COP(=O)(Oc3ccc(Br)cc3Br)N(C)C(C)C(=O)O)O2)c(=O)[nH]c1=O (stereo not shown)")
1.0

Now look at this one.
stdin: Threshold query (pEC50 >= 8) on COC(=O)C(NP(=O)(OCC1C=CC(n2cc(C)c(=O)[nH]c2=O)O1)Oc1ccccc1)C(C)C (stereo not shown)
stdout: 0.0

###

- Tested on: HIV-2
- assayNotes: Inhibition of HIV-2 in MT4 cells
- Assay type: cell-based
- assayContext: MT4 cells, HIV-2; read-out: HIV2 MT4: EC50 for inhibition of HIV-2 in MT4 cells
- Procedure: Cells were infected with HIV-1 as previously described [Balzarini et al. AIDS (1991), 5, 21–28]. Briefly, 5×10^5 cells per milliliter were infected with HIV-1 or HIV-2 at 100 CCID50 (50% cell culture infective dose) per milliliter of cell suspension. […] After 4 days giant cell formation was recorded microscopically in the HIV-infected cell cultures [CEM], and after 5 days the number of viable cells was determined by trypan blue staining of the HIV-infected cell cultures [MT4]. […]
metric: EC50 (nM)
Numbers only; they are read as nM.

Known results for compounds:
>>> measuredvalue("COC(=O)[C@H](C)NP(=O)(OCC1OC(n2cc(C)c(=O)[nH]c2=O)CC1N=[N+]=[N-])Oc1cc(Cl)cc(Cl)c1 (stereo partly shown)")
1000
>>> measuredvalue("COC(=O)C(C)NP(=O)(OCC1OC(n2cc(C)c(=O)[nH]c2=O)CC1N=[N+]=[N-])Oc1cccc(C(F)(F)F)c1 (stereo not shown)")
900
>>> measuredvalue("COC(=O)[C@H](C)NP(=O)(OCC1OC(n2cc(C)c(=O)[nH]c2=O)CC1N=[N+]=[N-])Oc1ccccc1 (stereo partly shown)")
11000

stdin: Find the measured EC50 of Cc1cn(C2CC(N=[N+]=[N-])C(CO)O2)c(=O)[nH]c1=O (stereo not shown) and report it.
stdout: 2300

###

- Test system: III-B strain of HIV-1
- assayNotes: microbe, parasite or virus in culture
- Assay type: cell-based
- assayContext: Human immunodeficiency virus 1; HIV1 in C8166; Table 2; read-out: EC50 C8166
metric: EC50 (nM)
Numbers only; they are read as nM.

stdin: Indicate its recorded EC50; the molecule in question is Cc1cn([C@H]2C=C[C@@H](CO)O2)c(=O)[nH]c1=O [d4T, 2′,3′-dideoxy-2′,3′-didehydrothymidine, reference compound]
stdout: 80

###

- Test system: CEM cells
- assayNotes: Toxicity to CEM cells
- Assay type: cell-based, human
- assayContext: Table 6; mean of two or more repeat experiments
metric: CC50 (µM)
Report as a plain number; the unit µM is understood.

These solved cases illustrate the format of a correct answer.
>>> measuredvalue("Cc1cn([C@H]2C=C[C@@H](COP(=O)(O)O)O2)c(=O)[nH]c1=O")
174
>>> measuredvalue("COC(=O)C(C)NP(=O)(OCC1C=CC(n2cc(C)c(=O)[nH]c2=O)O1)Oc1cccc(C(F)(F)F)c1 (stereo not shown)")
30

Field: next compound
stdin: Determine its reported CC50: Cc1cn(C2C=CC(COP(=O)(N[C@@H](C)C(=O)OC3CCCCC3)Oc3ccccc3)O2)c(=O)[nH]c1=O (stereo partly shown)
stdout: 51.4

###

- Test system: III-B strain of HIV-1
- assayNotes: microbe, parasite or virus in culture
- Format: cell-based
- assayContext: Human immunodeficiency virus 1, C8166; Table 4; read-out: EC50 8166 HIV1
Each item that follows carries a reported EC50.
Field format: number, assumed nM, no unit text.

>>> measuredvalue("COC(=O)C(C)NP(=O)(OCC1C=CC(n2cc(C)c(=O)[nH]c2=O)O1)Oc1ccccc1 (stereo not drawn) [Compound 324]")
3.2
>>> measuredvalue("Cc1cn([C@H]2C[C@H](N=[N+]=[N-])[C@@H](CO)O2)c(=O)[nH]c1=O [AZT, 3′-azido-3′-deoxythymidine, reference compound]")
8

Continue with the next compound.
stdin: Write down EC50 measured for item Cc1cn([C@H]2C=C[C@@H](CO)O2)c(=O)[nH]c1=O [d4T, 2′,3′-dideoxy-2′,3′-didehydrothymidine, reference compound]
stdout: 80

###

- Test system: HIV-1
- assayNotes: microbe, parasite or virus in culture
- assayContext: read-out: HIV1 CEM: EC50 for inhibition of HIV-1 in CEM cells; Table 6; mean of two or more repeat experiments
Label condition met when EC50 is strictly below 2 µM; otherwise label condition not met.

>>> labelclass("CCO[PH](=O)OCC1C=CC(n2cc(C)c(=O)[nH]c2=O)O1 (stereo not drawn)")
"condition met"

stdin: Given Cc1cn(C2C=CC(COP(=O)(Oc3ccccc3)N3CCCC3C(=O)O)O2)c(=O)[nH]c1=O (stereo not drawn) , is recorded EC50 strictly lower than 2 µM?
stdout: condition not met

stdin: Regarding Cc1cn(C2C=CC(COP(=O)(NC(C)C(=O)OCC3CCCCC3)Oc3ccccc3)O2)c(=O)[nH]c1=O (stereo not drawn) , kindly confirm whether its EC50 is beneath 2 µM.
stdout: condition met

stdin: In plain terms, does COCCOCCO[PH](=O)OCC1C=CC(n2cc(C)c(=O)[nH]c2=O)O1 (stereo not drawn) come in under 2 µM for EC50?
stdout: condition met

stdin: Bench note: check whether CCOP(=O)(OCC)OCC1C=CC(n2ccc(=O)[nH]c2=O)O1 (stereo not drawn) shows EC50 below 2 µM
stdout: condition not met

stdin: Consider the molecule Cc1cn(C2C=CC(COP(=O)(NC(C)C(=O)Oc3ccc4ccccc4c3)Oc3ccccc3)O2)c(=O)[nH]c1=O (stereo not drawn) . Is its EC50 strictly less than 2 µM?
stdout: condition met

stdin: Consider Cc1cn(C2C=CC(COP(=O)(NC(Cc3ccccc3)C(=O)OCc3ccccc3)Oc3ccccc3)O2)c(=O)[nH]c1=O (stereo not drawn) [Compound 866] . Does its EC50 lie strictly below 2 µM?
stdout: condition not met

stdin: Field: below-cutoff. Rule: recorded EC50 strictly less than 2 µM. Subject: COC(=O)C(C)NP(=O)(OC[C@@H]1C=C[C@H](n2cc(C)c(=O)[nH]c2=O)O1)Oc1c(F)c(F)c(F)c(F)c1F (stereo partly drawn)
stdout: condition not met

stdin: Given the entry Cc1cn(C2C=CC(COP(=O)(O)N[C@H](C)C(=O)O)O2)c(=O)[nH]c1=O (stereo partly drawn) , would its reported EC50 be below 2 µM?
stdout: condition met

stdin: Criterion: EC50 strictly below 2 µM. Is it met by Cc1cn(C2C=CC(COP(=O)(O)NC(C(=O)O)C(C)C)O2)c(=O)[nH]c1=O (stereo not drawn) ?
stdout: condition met
